test: solvent given as SMILES; conditions: in CCCCCC
Observation Type: emission maximum (nm)
Give the quantity in nm, number only.

compound=c1ccc2c(c1)cc(-c1cc(-c3nccs3)nc(-c3nccs3)c1)c1ccccc12 observation_type="emission maximum" readout_number=361
compound="CC(O)CC1=N/C(=C\\c2cccc(N(C)C)c2)C(=O)N1C (stereo not given)" observation_type="emission maximum" readout_number=506
compound=Nc1ccc(/C=C/c2ccc3ccccc3c2)cc1 observation_type="emission maximum" readout_number=392
compound=Nc1ccc2cc(-c3ccc(C(F)(F)F)cc3)oc(=O)c2c1 observation_type="emission maximum" readout_number=418
compound=COCCN1C(=O)/C(=C/c2cccc(N(C)C)c2)N=C1C observation_type="emission maximum" readout_number=491
compound=CN(C)c1ccc(C=C/C=C/C=C/c2ccc(C#N)cc2)cc1 observation_type="emission maximum" readout_number=467
compound=c1ccc(-n2c(-c3cccc4ccccc34)nc3c4ccccc4c4ccccc4c32)cc1 observation_type="emission maximum" readout_number=384
compound=O=C1c2cccc3c(-n4c5ccccc5c5ccccc54)ccc(c23)C(=O)N1c1ccccc1 observation_type="emission maximum" readout_number=443
compound=OCCSc1cccc2[n+]1[B-](F)(F)n1c(c3cccc4cccc1c43)=N2 observation_type="emission maximum" readout_number=497
compound=CN(C)c1ccc(/C=C/C=C2\CC/C(=C\c3ccc(N(C)C)cc3)C2=O)cc1 observation_type="emission maximum" readout_number=504

*Q* Can you look up the measured emission maximum of "Cc1cc(C)c(B(c2cc3c4c(c(B(c5c(C)cc(C)cc5C)c5c(C)cc(C)cc5C)cc5c4c2CCC5)CCC3)c2c(C)cc(C)cc2C)c(C)c1" for me?
*A* 456

*Q* Param item = "CCCCOc1ccc2cc(-c3ccc(C)cc3)c(=O)oc2c1" ; retrieve measured emission maximum.
*A* 416

*Q* Returns the measured emission maximum for the input compound. Input: "COc1ccc(C2=CC(c3cc(OC)cc(OC)c3)=[O+][B-](F)(F)O2)cc1"
*A* 410.21

*Q* Sample COC(=O)C(Cc1ccc2oc(-c3ccc(Nc4ccccc4)cc3)nc2c1)NC(=O)OC(C)(C)C (stereo not given) — what was its emission maximum?
*A* 383.49

*Q* For "N#Cc1cc(-n2c3ccccc3c3ncccc32)c(-n2c3ccccc3c3ncccc32)cc1C#N" , what is its reported emission maximum?
*A* 443.72

*Q* Tell me the measured emission maximum of "CNc1cccc2c1C(=O)c1ccccc1C2=O" , please.
*A* 560

*Q* Give its emission maximum value. Item: "O=C1OC(=O)c2ccc(N(c3ccccc3)c3c4ccccc4cc4ccccc34)c3cccc1c23"
*A* 514

*Q* Which emission maximum is listed for "Nc1ccc(-c2ccc(N)cc2)cc1" ?
*A* 373

*Q* Reported emission maximum for "CC(C)(C)c1ccc2c(c1)sc1[n+]2[B-](F)(F)n2c(c3cccc4c(Br)ccc2c43)=N1" : what is it?
*A* 516

*Q* Bench note: what emission maximum did "CC1=[N+]2C(=C(c3c4ccccc4c(-c4ccccc4)c4ccccc34)c3ccc(C)n3[B-]2(F)F)C=C1" show?
*A* 527
